Test system: 786-O
Test: Euclidean distance of Cell Painting phenotypic profile (signed KS, 77 features) to DMSO centroid (dimensionless distance); 5 or 10 uM (library dependent); higher = stronger phenotypic change vs DMSO (phenoactivity)
Details: 48 h
Where a name gives a salt, the structure may show the parent alone.
Entry flag: criterion met if Euclidean distance reaches 0.9; criterion not met if it does not.

Compound	Group label
C=C1CC/C=C(/C)CC[C@@H]2[C@@H]1CC2(C)C	criterion met
COc1cccc(-c2c(C)n(Cc3c(F)cccc3C(F)(F)F)c(=O)n(C[C@H](NCCCC(=O)O)c3ccccc3)c2=O)c1F [Elagolix Sodium]	criterion not met
O=C(O)C1=C(CSc2nnnn2CS(=O)(=O)O)CS[C@@H]2[C@H](NC(=O)[C@H](O)c3ccccc3)C(=O)N12 [Cefonicid sodium]	criterion met
Cn1cc(/C=C2\C(=O)Nc3cccnc32)c2ccccc21	criterion not met
c1ccc(-c2[nH]ncc2-c2ccnc3ccccc23)nc1	criterion not met
O=[N+]([O-])c1cncn1CCN1CCOCC1	criterion not met
NCc1ccc(S(N)(=O)=O)cc1 [Mafenide hydrochloride]	criterion met
Cc1ccccc1C(=O)Nc1ccc(C(=O)N2CCCC(N(C)C)c3ccccc32)cc1 (configuration not stated)	criterion not met
NCC(=O)O	criterion met
COCCNCCc1cccc(Nc2ncc3c(n2)-c2ccccc2[C@H](c2ccccc2F)C3)c1 [Derazantinib(ARQ-087)]	criterion met
C=CC(=O)Nc1cccc(Nc2nc(Nc3ccc(OCCOC)cc3)ncc2F)c1	criterion met
C[C@H](CCC(=O)NCCS(=O)(=O)O)[C@H]1CC[C@H]2[C@@H]3[C@@H](O)C[C@@H]4C[C@H](O)CC[C@]4(C)[C@H]3CC[C@]12C	criterion not met
Cc1cc(Nc2cc(N3CCN(C)CC3)nc(/C=C/c3ccccc3)n2)n[nH]1 [ENMD-2076 L-(+)-Tartaric acid]	criterion met
C[C@@]12C[C@@]3(O)O[C@@H](O1)[C@]1(COC(=O)c4ccccc4)[C@H]3C[C@@]12O[C@@H]1O[C@H](CO)[C@@H](O)[C@H](O)[C@H]1O	criterion met
CO/N=C(/C(=O)N[C@@H]1C(=O)N2C(C(=O)OCOC(=O)C(C)(C)C)=C(C)CS[C@H]12)c1csc(N)n1 [Cefetamet pivoxil hydrochloride]	criterion met
O=S(=O)(O)CCSSCCS(=O)(=O)O	criterion met
C[C@@H](O)[C@H]1C(=O)N2C(C(=O)O)=C(S[C@@H]3CN[C@H](C(=O)Nc4cccc(C(=O)O)c4)C3)[C@H](C)[C@H]12 [Ertapenem sodium]	criterion not met
CC(C)CCNc1ncccc1C(=O)N1CCN(Cc2ccccc2)CC1	criterion not met
CN[C@@H]1[C@@H](O[C@H]2O[C@H](CO)[C@@H](N)[C@H](O)[C@H]2O)OC2C[C@@H](N)[C@@H](O[C@H]3[C@H](O)[C@@H](O)[C@H](N)C[C@@H]3N)OC2[C@@H]1O (some centres not stated) [Apramycin Sulfate]	criterion met
Nc1nc2[nH]cc(CCc3ccc(C(=O)N[C@@H](CCC(=O)O)C(=O)O)cc3)c2c(=O)[nH]1 [Pemetrexed Disodium Hydrate]	criterion met
Cc1cc(-c2ccc(/N=N/c3ccc4c(S(=O)(=O)O)cc(S(=O)(=O)O)c(N)c4c3O)c(C)c2)ccc1/N=N/c1ccc2c(S(=O)(=O)O)cc(S(=O)(=O)O)c(N)c2c1O	criterion met
CCCOC(C(=O)OC1CCN(C)CC1)(c1ccccc1)c1ccccc1 [Propiverine hydrochloride]	criterion met
